Task for the reader: assign each of the following variants its reported protein stability index.
B1: NETO1 (parent)
chain: GFSPIIGRFCGQQNPPVIKSSGRF

Variants of: B1
TEST_SUMMARY: protein stability index of a GFP-peptide fusion (GPS, HEK-293T) (PSI 1-6); higher = more stable;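 also: lentivirally expressed fusions sorted by FACS into six bins by GFP to DsRed ratio, PSI derived from sequencing read proportions per bin multiplied by bin number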
APPLIED_CONDITIONS: c terminus: a fixed tail appended

// for each variant in input: emit protein stability index
1. S20F
2. P15T
3. I6E
4. V17Q
5. F24G
6. N14E
7. Q13V
8. Q12G

Found:
1. 2.26
2. 2.04
3. 3.28
4. 2.52
5. 3.51
6. 2.38
7. 2.36
8. 2.26

// for each variant in input: emit protein stability index
1. P4W
2. S3N
3. I18R
4. P16C
5. S21A
6. F9N

Found:
1.91
2.08
3.13
2.02
2.88
2.42

// for each variant in input: emit protein stability index
1. F24K
2. Q12V
3. K19P
4. N14W
5. S21C

Found:
3.64
2.15
2.37
1.87
2.42
